target: T1, PSMA Fab (006 PSMA Fab); test: clonal phage ELISA; biotinylated PSMA Fab on neutravidin plate pre-incubated with competitor PSMA antigen; anti-M13-HRP detection
T1 construct: also called Anti-PSMA Fab; anti-PSMA Fab
test readout: Phage binding ELISA signal, Anti-PSMA Fab in presence of PSMA antigen
Respond numerically, and do not add a unit to the figure.

Query: Form field: reported Phage binding ELISA signal, Anti-PSMA Fab in presence of PSMA antigen of SDNWCKPKWMCETI [Phage-2319]
Reply: 0.116

Query: // Phage binding ELISA signal, Anti-PSMA Fab in presence of PSMA antigen lookup, key: LDKWCIPPWMCETV [Phage-2321]
Reply: 0.0597

Query: Which measured Phage binding ELISA signal, Anti-PSMA Fab in presence of PSMA antigen value corresponds to GMLACTPAWMCEGF [Phage-2316] ?
Reply: 0.0923

Below: the item to evaluate.
Query: Phage binding ELISA signal, Anti-PSMA Fab in presence of PSMA antigen for VEKLCIPHWMCEAS [Phage-2325] ?
Reply: 0.0647
